# Test system: human αVβ6 (Homo sapiens, UniProt P06756+P18564)
# Sequence (P06756 31-992 limits assumed): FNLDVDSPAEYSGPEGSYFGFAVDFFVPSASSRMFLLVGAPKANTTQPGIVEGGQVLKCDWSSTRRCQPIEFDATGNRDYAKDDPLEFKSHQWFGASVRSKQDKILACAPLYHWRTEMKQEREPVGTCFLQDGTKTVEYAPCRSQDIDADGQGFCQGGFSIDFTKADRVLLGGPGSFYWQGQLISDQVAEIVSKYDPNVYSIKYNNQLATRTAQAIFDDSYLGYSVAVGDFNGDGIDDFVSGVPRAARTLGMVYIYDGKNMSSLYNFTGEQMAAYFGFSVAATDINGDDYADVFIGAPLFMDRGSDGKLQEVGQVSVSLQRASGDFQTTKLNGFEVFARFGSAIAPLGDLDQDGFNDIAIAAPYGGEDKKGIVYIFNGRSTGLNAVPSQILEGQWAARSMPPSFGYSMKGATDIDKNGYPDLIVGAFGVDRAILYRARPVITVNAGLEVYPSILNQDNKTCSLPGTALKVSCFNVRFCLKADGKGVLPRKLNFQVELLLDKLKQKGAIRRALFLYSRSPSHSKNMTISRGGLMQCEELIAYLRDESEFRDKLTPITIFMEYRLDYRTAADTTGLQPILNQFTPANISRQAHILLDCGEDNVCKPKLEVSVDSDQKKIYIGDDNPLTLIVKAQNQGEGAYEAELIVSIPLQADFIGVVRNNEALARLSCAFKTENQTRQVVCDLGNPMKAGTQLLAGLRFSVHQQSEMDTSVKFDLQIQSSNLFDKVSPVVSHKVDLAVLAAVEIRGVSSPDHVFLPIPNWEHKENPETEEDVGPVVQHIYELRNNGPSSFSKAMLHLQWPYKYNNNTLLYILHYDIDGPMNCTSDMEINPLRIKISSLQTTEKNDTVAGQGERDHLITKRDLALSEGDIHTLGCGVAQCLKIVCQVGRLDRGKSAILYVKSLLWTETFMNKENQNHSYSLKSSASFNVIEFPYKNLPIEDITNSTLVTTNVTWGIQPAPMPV
# Sequence (P18564 22-707 limits assumed): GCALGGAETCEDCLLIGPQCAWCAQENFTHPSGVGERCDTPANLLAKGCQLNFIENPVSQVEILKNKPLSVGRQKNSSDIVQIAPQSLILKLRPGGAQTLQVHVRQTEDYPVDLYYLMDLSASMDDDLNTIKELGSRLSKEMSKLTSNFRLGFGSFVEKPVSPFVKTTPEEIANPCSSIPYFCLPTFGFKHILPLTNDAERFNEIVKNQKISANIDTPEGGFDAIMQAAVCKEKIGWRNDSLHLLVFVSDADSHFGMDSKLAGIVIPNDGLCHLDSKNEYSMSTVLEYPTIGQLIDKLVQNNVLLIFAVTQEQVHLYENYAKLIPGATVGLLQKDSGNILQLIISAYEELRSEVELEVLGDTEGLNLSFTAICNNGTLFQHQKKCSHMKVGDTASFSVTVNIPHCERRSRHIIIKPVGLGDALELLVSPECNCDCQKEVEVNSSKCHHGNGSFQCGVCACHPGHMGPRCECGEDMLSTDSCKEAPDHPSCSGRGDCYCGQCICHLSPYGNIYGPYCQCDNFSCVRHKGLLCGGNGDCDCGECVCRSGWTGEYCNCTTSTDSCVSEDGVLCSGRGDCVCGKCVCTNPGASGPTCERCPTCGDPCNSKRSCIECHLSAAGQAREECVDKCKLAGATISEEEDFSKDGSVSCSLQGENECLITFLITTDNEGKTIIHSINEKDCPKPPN
# Experiment: human αVβ6 HTRF binding assay
# Condition set: alternatively SPA-based assay
Measurement name: log10 IC50 (log10 of the value in nM)

>>> recorded_result("CCCOC(=O)N[C@@H](CC(=O)N1CC(CCc2ccc3c(n2)NCCC3)C1)C(=O)O [Example 175]")
2.87
>>> recorded_result("O=C(N[C@@H](CC(=O)N1CC(CCc2ccc3c(n2)NCCC3)C1)C(=O)O)OCC1CCC1 [Example 174]")
1.83
>>> recorded_result("COc1ccc(C(CC(=O)O)CC(=O)N2CC(CCc3ccc4c(n3)NCCC4)C2)cc1F (stereo not shown) [Example 67]")
0.85
>>> recorded_result("COc1ccc([C@H](CC(=O)O)N2CC(c3ccc(-c4ccc5c(n4)NCCC5)cc3)C2=O)cn1 (single isomer, unassigned) [Example 183]")
0.30
>>> recorded_result("COc1ccc([C@H](CC(=O)O)N2CC(CCCc3ccc4c(n3)NCCC4)C2=O)cc1F (single isomer, unassigned) [Example 180]")
1.23
>>> recorded_result("Cc1cc(C)c(S(=O)(=O)N[C@@H](CNC2CN(CCCc3ccc4c(n3)NCCC4)C2)C(=O)O)c(C)c1 [Example 73]")
0.81
>>> recorded_result("CCCOC(=O)N[C@@H](CNC(=O)[C@H]1C[C@@H](Cc2ccc3c(n2)NCCC3)C1)C(=O)O [Example 198]")
0.28
